# SYSTEM_TESTED: T1, CRBN, Q96SW2;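 further: pooled lentiviral library of zinc finger degron-EGFP fusions in mCherry-positive Jurkat cells, FACS-sorted after compound exposure, with degron abundance counted by next-generation sequencing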
# T1 chain: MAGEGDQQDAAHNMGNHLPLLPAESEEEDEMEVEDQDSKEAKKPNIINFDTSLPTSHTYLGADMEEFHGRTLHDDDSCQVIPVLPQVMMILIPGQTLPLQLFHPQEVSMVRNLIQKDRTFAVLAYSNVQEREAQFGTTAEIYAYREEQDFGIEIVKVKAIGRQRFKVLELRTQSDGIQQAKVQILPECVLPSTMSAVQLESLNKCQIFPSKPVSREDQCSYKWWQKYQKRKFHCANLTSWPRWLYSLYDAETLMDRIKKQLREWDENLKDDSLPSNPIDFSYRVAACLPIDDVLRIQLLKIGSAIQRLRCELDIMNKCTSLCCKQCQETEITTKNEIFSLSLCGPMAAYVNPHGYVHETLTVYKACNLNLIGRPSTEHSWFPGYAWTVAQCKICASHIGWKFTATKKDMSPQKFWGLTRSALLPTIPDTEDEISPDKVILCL
# ASSAY_TEXT: log2 fold change of degron read counts, EGFP-low vs EGFP+ sorted cells (limma voom), compound-induced degradation; higher = more compound-induced degradation of the degron-EGFP fusion; degrons are variants of IKZF1/3 zinc finger 2; compound dose not given here
# ASSAY_CONTEXT: Jurkat; 18 h; compound: compound 22 (5-morpholino-thalidomide)
Over roughly 8,300 sequences, “log2 fold change of degron read counts, EGFP-low vs EGFP+ sorted cells (limma voom), compound-induced degradation” has its median near -1.1; the highest 2% begin near 3.2. This is one part of a sample in which the highest values are shown more often than they occur.
Classify by measured log2 fold change of degron read counts: TRUE if it is equal to or exceeds 0.7, FALSE if it is smaller.

SEQUENCE_TEXT: FLCPVCGARFTQKGNLLRHIKL [46F_47L_49P_50V_52G_53A_54R_55F_67L_, Q9UKT9]
CLASS_ASSIGNMENT: FALSE
//
SEQUENCE_TEXT: FWCNICGAGFTQKGNLLRHIKL [46F_47W_49N_50I_52G_53A_54G_55F_67L_, Q9UKT9]
CLASS_ASSIGNMENT: TRUE
//
SEQUENCE_TEXT: FRCPVCGARFTQKGNLLRHIKL [46F_47R_49P_50V_52G_53A_54R_55F_67L_, Q9UKT9]
CLASS_ASSIGNMENT: FALSE
//
SEQUENCE_TEXT: FVCPVCGADFTQKGNLLRHIKL [46F_47V_49P_50V_52G_53A_54D_55F_67L_, Q9UKT9]
CLASS_ASSIGNMENT: FALSE
//
SEQUENCE_TEXT: FTCPVCGARFTQKGNLLRHIKL [46F_47T_49P_50V_52G_53A_54R_55F_67L_, Q9UKT9]
CLASS_ASSIGNMENT: TRUE
//
SEQUENCE_TEXT: FKCPVCGARFTQKGNLLRHIKL [46F_47K_49P_50V_52G_53A_54R_55F_67L_, Q9UKT9]
CLASS_ASSIGNMENT: FALSE
//
SEQUENCE_TEXT: FQCPVCGALFTQKGNLLRHIKL [46F_47Q_49P_50V_52G_53A_54L_55F_67L_, Q9UKT9]
CLASS_ASSIGNMENT: TRUE

Value source: the supplement of paper PMC12645437
